Molecular target: Metabotropic glutamate receptor 8 (Rattus norvegicus)
Assay: mGluR8 Gi/Go-coupled signaling modulation – cell-based, rat, thallium flux, HTS, primary screen (AID 488969)
Conditions: HEK293 rat mGluR8, GIRK thallium flux, FluoZin2; at 10 µM; stronger effect = higher value; submaximal glutamate (EC20) added with thallium
The full ranking holds about 110,000 compounds; the median of “z-score” is about -0.1, and the highest 2% start at about 2. This is one part of a sample in which the highest values are shown more often than they occur.
We begin with a simple list: items and their reported z-score.
Reply briefly: the number, and no unit.

Consider the reported z-score for these compounds:
1. CC(C)NC(=S)N/N=C/c1cc(Br)ccc1O | 6.43
2. CC(=O)Oc1ccc2oc(=O)c3c(c2c1)CCCN3C(=O)CN1CCN(c2ncccn2)CC1 | -0.26
3. CCCCCCN1N=C(C)C(C(=O)c2ccc(Cl)cc2)C1=O (stereo not given) | 0.521

*Q* Endpoint output: z-score of COCCN(C(=O)Cc1cccs1)C(C(=O)NCc1ccc(OC)cc1)c1ccc(OC)cc1 (stereo not given) . Value?
*A* -0.202

*Q* Item CCOC(=O)C1CCCN(C(=O)c2sc3nc(C)nc(N(CC)CC)c3c2C)C1 (stereo not given) has what recorded z-score?
*A* -0.328

*Q* For the compound CC1=NN(c2ccccc2)C(=O)C1C(=O)c1ccc(Cl)cc1 (stereo not given) , what z-score is on record?
*A* 2.14

*Q* # query: z-score of entry COC(=O)Cc1c(C)nc2nc(-c3ccc(OC)cc3)[nH]n2c1=O
*A* -0.0668

*Q* Could you share which z-score value was measured for CCc1ccc(C(C(=O)NCc2ccc(OC)cc2)N(CCOC)C(=O)Cc2cccs2)cc1 (stereo not given) ?
*A* -0.37

*Q* Return reported z-score; argument: Cc1ccc(CNC(=O)C2C3C=CC4(CN(Cc5cccnc5)C(=O)C24)O3)cc1 (stereo not given)
*A* -0.0986

*Q* Dear colleague, I am looking for the recorded z-score of the following compound: COC(=O)Cc1c(C)nc2nc(-c3ccccc3)[nH]n2c1=O
*A* -0.455

---

Target: Metabotropic glutamate receptor 8 (Rattus norvegicus) (UniProt P70579)
Sequence (P70579 whole entry, looked up): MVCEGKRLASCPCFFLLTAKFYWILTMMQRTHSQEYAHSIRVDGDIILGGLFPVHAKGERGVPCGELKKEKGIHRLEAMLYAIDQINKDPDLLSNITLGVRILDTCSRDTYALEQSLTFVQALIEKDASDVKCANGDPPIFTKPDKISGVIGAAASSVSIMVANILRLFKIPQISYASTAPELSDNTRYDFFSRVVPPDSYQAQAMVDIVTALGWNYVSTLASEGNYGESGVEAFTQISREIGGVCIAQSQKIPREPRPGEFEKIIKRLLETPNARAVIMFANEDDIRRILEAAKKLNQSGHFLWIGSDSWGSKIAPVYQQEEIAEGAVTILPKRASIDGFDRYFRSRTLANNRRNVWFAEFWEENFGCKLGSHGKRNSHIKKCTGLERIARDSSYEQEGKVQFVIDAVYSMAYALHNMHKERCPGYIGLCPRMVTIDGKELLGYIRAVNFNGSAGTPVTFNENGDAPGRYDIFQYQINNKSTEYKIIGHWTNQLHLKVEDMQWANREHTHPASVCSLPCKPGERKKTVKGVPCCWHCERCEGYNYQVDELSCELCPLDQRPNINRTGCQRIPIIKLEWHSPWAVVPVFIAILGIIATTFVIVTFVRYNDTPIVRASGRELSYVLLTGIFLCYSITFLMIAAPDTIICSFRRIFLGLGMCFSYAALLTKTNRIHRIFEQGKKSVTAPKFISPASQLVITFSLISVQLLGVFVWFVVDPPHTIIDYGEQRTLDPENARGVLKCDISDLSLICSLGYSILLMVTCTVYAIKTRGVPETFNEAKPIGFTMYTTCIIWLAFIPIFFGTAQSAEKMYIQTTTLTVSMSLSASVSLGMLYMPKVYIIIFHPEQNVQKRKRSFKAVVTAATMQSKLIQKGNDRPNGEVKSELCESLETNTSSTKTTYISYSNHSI
Experiment: mGluR8 Gi/Go-coupled signaling modulation – cell-based, rat, thallium flux, HTS, primary screen (AID 488969)
Conditions: HEK293 rat mGluR8, GIRK thallium flux, FluoZin2; at 10 µM; stronger effect = higher value; submaximal glutamate (EC20) added with thallium
The full ranking holds about 110,000 compounds; the median of “z-score” is about -0.1, and the highest 2% start at about 2. Only a selection was taken, and the highest values are over-represented in it overall.
Grouping by measured z-score is done with the following cut points: zone 1: < -0.2; zone 2: ≥ -0.2 and < 0.4; zone 3: ≥ 0.4

Here are 3 compounds together with their reported answers.
1. O=C(Oc1ccc(N2C(=O)CCC2=O)cc1)c1ccco1 | zone 1
2. CCCOC(=S)NC(=O)c1sc2ccccc2c1Cl | zone 3
3. COc1ccc(OC)c(N(CC(=O)Nc2cccnc2)S(=O)(=O)c2ccccc2)c1 | zone 1

*Q* // bin(item) where item = COc1ccc(C(CC(=O)O)NC(=O)c2sc3ccccc3c2Cl)cc1 (configuration not stated)
*A* zone 1

---

Molecular target: Metabotropic glutamate receptor 8 (Rattus norvegicus) (UniProt P70579)
Assay: mGluR8 Gi/Go-coupled signaling modulation – cell-based, rat, thallium flux, HTS, primary screen (AID 488969)
Details: HEK293 rat mGluR8, GIRK (G protein-gated inwardly rectifying potassium channel) thallium flux, FluoZin2; at 10 µM; stronger effect = higher value; submaximal glutamate (EC20) added with thallium
In all, about 110,000 compounds were measured (“z-score”: median about -0.1, highest 2% from about 2 on). Shown is part of a subset that was picked to be rich in the highest values.
Think of 0.03 as a floor: if z-score stands on it or above, it is condition met; beneath it, condition not met.

1. CCCc1cc(=O)n2[nH]c(C)cc2n1 | condition not met
2. CC(=O)Nc1cccc(C(=O)/C=C/c2ccc(/C=C/C(=O)c3cccc(NC(C)=O)c3)cc2)c1 | condition met
3. COCC(=O)NC1CCN(C(=O)Nc2ccc(Br)cc2)CC1 | condition not met
4. O=c1[nH]c(CN2CCN(c3ccccc3)CC2)nc2ccccc12 | condition met
5. CCCc1cc(=O)n2[nH]c(-c3ccc(Br)cc3)cc2n1 | condition met

We now examine a further compound.
*Q* Textbook exercise: given the entry Nc1cc(-c2ccc(Cl)cc2)nn1S(=O)(=O)c1ccc(Cl)cc1 , state whether its z-score is greater than or equal to 0.03.
*A* condition not met
